Sourced from paper PMC9516332

System Name: panel of 255 wild-type kinases (Homo sapiens)
Method Summary: Kinase panel profiling at 1 µmol/L (MSA or IMAP), percentage inhibition
Type: biochemical
Assay Conditions: p70S6K; 1 µmol/L single concentration; read-out: %-inhibition, p70S6K
In this section we review reported inhibition at 1 µM values for a set of compounds.
Write the answer as a number in %, unit excluded.

# example entries with known answers
Cc1cc(Nc2ncnc3ccc(NC4=NC(C)(C)CO4)cc23)ccc1Oc1ccn2ncnc2c1 [tucatinib] = 15
CCn1c(=O)c(-c2cc(NC(=O)Nc3ccccc3)c(F)cc2Br)cc2cnc(NC)cc21 [ripretinib] = 64

Input: Consider the compound CCN1C(=O)N(c2c(F)c(OC)cc(OC)c2F)Cc2cnc3[nH]c(CN4CCOCC4)cc3c21 [pemigatinib] and give its measured inhibition at 1 µM.
Output: -0.418

Input: Now consider Cn1cc(-c2cc3c(N4CCN(c5ncc([C@@](C)(N)c6ccc(F)cc6)cn5)CC4)ncnn3c2)cn1 [avapritinib] .
Output: 20

###

System Name: panel of 255 wild-type kinases (Homo sapiens, UniProt P11309)
Sequence (P11309 whole entry): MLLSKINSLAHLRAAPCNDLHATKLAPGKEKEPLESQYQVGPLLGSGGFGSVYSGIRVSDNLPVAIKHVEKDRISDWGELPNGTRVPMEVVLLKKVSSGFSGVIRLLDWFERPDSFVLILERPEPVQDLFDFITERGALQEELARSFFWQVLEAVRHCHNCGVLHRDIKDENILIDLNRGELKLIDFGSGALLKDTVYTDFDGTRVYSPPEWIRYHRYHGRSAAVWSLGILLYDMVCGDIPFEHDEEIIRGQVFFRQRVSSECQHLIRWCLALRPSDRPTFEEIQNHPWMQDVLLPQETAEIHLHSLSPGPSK
Method Summary: Kinase panel profiling at 1 µmol/L (MSA or IMAP), percentage inhibition
Format: biochemical
Assay Conditions: kinase PIM1; 1 µmol/L single concentration; read-out: %-inhibition at 1 µmol/L, PIM1
In this section we review reported inhibition at 1 µM values for a set of compounds.
Write the answer as a number in %, unit excluded.

# example entries with known answers
FC(F)(F)c1ccc(CNc2ccc(Cc3c[nH]c4ncc(Cl)cc34)cn2)cn1 = -3.77
CN1CCN(c2ccc(C(=O)Nc3n[nH]c4ccc(Cc5cc(F)cc(F)c5)cc34)c(NC3CCOCC3)c2)CC1 = -6

Input: # value lookup — system panel of 255 wild-type kinases (Homo sapiens, UniProt P11309), readout inhibition at 1 µM, item `C[C@H]1Oc2cc(cnc2N)-c2c(nn(C)c2C#N)CN(C)C(=O)c2ccc(F)cc21`
Output: 8

Input: Now consider `Cc1nc(NC(=O)N2CCC[C@H]2C(N)=O)sc1-c1ccnc(C(C)(C)C(F)(F)F)c1` .
Output: 4

Input: Now consider `COc1ccc(CN2C3CC2CN(c2ccc(-c4cc(OCC(C)(C)O)cn5ncc(C#N)c45)cn2)C3)cn1` .
Output: -5.68

Input: Now consider `C=CC(=O)N1CCC([C@@H]2CCNc3c(C(N)=O)c(-c4ccc(Oc5ccccc5)cc4)nn32)CC1` .
Output: -11

Input: Now consider `CO[C@]1(C(=O)N[C@@H](C)c2ccc(-n3cc(F)cn3)nc2)CC[C@H](c2nc(C)cc(Nc3cc(C)[nH]n3)n2)CC1` .
Output: -1.53

Input: Now consider `COC(=O)N[C@@H](C)CNc1nccc(-c2cn(C(C)C)nc2-c2cc(Cl)cc(NS(C)(=O)=O)c2F)n1` .
Output: 10

Input: Now consider `CCn1c(=O)c(-c2cc(NC(=O)Nc3ccccc3)c(F)cc2Br)cc2cnc(NC)cc21` .
Output: -5

Input: Now consider `C[C@H](Nc1ncnc2nc[nH]c12)c1cc2cccc(Cl)c2c(=O)n1-c1ccccc1` .
Output: -0.908

Input: Now consider `O=C(Nc1cnn2ccc(N3CCC[C@@H]3c3cc(F)ccc3F)nc12)N1CC[C@H](O)C1` .
Output: -5.32

Input: Now consider `Cn1cnc2c(F)c(Nc3ccc(Br)cc3Cl)c(C(=O)NOCCO)cc21` .
Output: -6

Input: Now consider `Cc1cc(Nc2ncnc3ccc(NC4=NC(C)(C)CO4)cc23)ccc1Oc1ccn2ncnc2c1` .
Output: -3.59

Input: Now consider `Cn1cc(-c2cc3c(N4CCN(c5ncc([C@@](C)(N)c6ccc(F)cc6)cn5)CC4)ncnn3c2)cn1` .
Output: 24

Input: Now consider `CCN1CCN(c2ccc(Nc3cc(N(C)C(=O)Nc4c(Cl)c(OC)cc(OC)c4Cl)ncn3)cc2)CC1` .
Output: -2.33
